Test system: K12877-001-R-J1-PDC complex spheroid viability
Experiment: Anticancer human tumor K12877-001-R-J1-PDC patient-derived lung adenocarcinoma cell line growth inhibition [RAS]
Details: second compound 0.316 µM; first compound 0.000949 µM; stronger effect = lower value
attribute measured: viability, T/C (%)
Give just the number in %; leave the unit off.

Problem: If you can, please state the reported viability, T/C value of CC1(C)CCC(Nc2ncc(C(F)(F)F)c(-c3c[nH]c4c(P(C)(C)=O)c(C#N)ccc34)n2)CN1 (centres undefined) + C=CC(=O)N1CCN(c2nc(OCC3CCCN3C)nc3c(F)c(-c4nc(N)cc(C)c4C(F)(F)F)c(Cl)cc23)C(C)C1 .
Result: 87.7

Problem: Similarly, CC1(C)CCC(Nc2ncc(C(F)(F)F)c(-c3c[nH]c4c(P(C)(C)=O)c(C#N)ccc34)n2)CN1 (centres undefined) + C#Cc1c(F)ccc2cc(O)cc(-c3ncc4c(N5CC6CCC(C5)N6)nc(OCC56CCCN5CC(F)C6)nc4c3F)c12 ?
Result: 89.9

Problem: How about CCc1c2c(nc3ccc(O)cc13)-c1cc3c(c(=O)n1C2)COC(=O)[C@]3(O)CC + C=CC(=O)N1CCN(c2nc(OCC3CCCN3C)nc3c(F)c(-c4nc(N)cc(C)c4C(F)(F)F)c(Cl)cc23)C(C)C1 ?
Result: 83.4

Problem: Now this one: CCc1c2c(nc3ccc(O)cc13)-c1cc3c(c(=O)n1C2)COC(=O)[C@]3(O)CC + C#Cc1c(F)ccc2cc(O)cc(-c3ncc4c(N5CC6CCC(C5)N6)nc(OCC56CCCN5CC(F)C6)nc4c3F)c12
Result: 89.3

---

System: K12877-001-R-J1-PDC complex spheroid viability
Experiment: Anticancer human tumor K12877-001-R-J1-PDC cell line growth inhibition [RAS];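 further: spheroids exposed to agents for one week before readout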
Details: curve of first compound; second compound 1 µM
For each entry below, report its IC50 value.
Express your answer in nM, writing the number without its unit.

Problem: Requested field: IC50. Item: CC(C)n1nc(-c2ccc3oc(N)nc3c2)c2c(N)ncnc21 + C#Cc1c(F)ccc2cc(O)cc(-c3ncc4c(N5CC6CCC(C5)N6)nc(OCC56CCCN5CC(F)C6)nc4c3F)c12
Result: 28

Problem: Now consider Nc1ccn(C2OC(CO)C(O)C2(F)F)c(=O)n1 (stereo unspecified) + C#Cc1c(F)ccc2cc(O)cc(-c3ncc4c(N5CC6CCC(C5)N6)nc(OCC56CCCN5CC(F)C6)nc4c3F)c12 and answer again.
Result: 17.6

Problem: Can you handle CC(C)NCC(C(=O)N1CCN(c2ncnc3c2C(C)CC3O)CC1)c1ccc(Cl)cc1 (stereo unspecified) + C=CC(=O)N1CCN(c2nc(OCC3CCCN3C)nc3c(F)c(-c4nc(N)cc(C)c4C(F)(F)F)c(Cl)cc23)C(C)C1 next?
Result: 1540

Problem: Moving on to CC(Nc1ccc2c(c1)OCCn1cc(N3C(=O)OCC3C(F)F)nc1-2)C(N)=O (stereo unspecified) + C=CC(=O)N1CCN(c2nc(OCC3CCCN3C)nc3c(F)c(-c4nc(N)cc(C)c4C(F)(F)F)c(Cl)cc23)C(C)C1
Result: 1430

Problem: And what about the compound CC1(C)CCC(Nc2ncc(C(F)(F)F)c(-c3c[nH]c4c(P(C)(C)=O)c(C#N)ccc34)n2)CN1 (stereo unspecified) + C#Cc1c(F)ccc2cc(O)cc(-c3ncc4c(N5CC6CCC(C5)N6)nc(OCC56CCCN5CC(F)C6)nc4c3F)c12 ?
Result: 50.3

Problem: Record: NC1c2ccccc2OC12CCN(c1cnc3c(N4CCCc5ncccc54)n[nH]c3n1)CC2 (stereo unspecified) + C=CC(=O)N1CCN(c2nc(OCC3CCCN3C)nc3c(F)c(-c4nc(N)cc(C)c4C(F)(F)F)c(Cl)cc23)C(C)C1
Result: 9970

Problem: Could you do the same for Nc1ccn(C2OC(CO)C(O)C2(F)F)c(=O)n1 (stereo unspecified) + C=CC(=O)N1CCN(c2nc(OCC3CCCN3C)nc3c(F)c(-c4nc(N)cc(C)c4C(F)(F)F)c(Cl)cc23)C(C)C1 , please?
Result: 13.1

Problem: Also check CCc1c2c(nc3ccc(O)cc13)-c1cc3c(c(=O)n1C2)COC(=O)[C@]3(O)CC + C=CC(=O)N1CCN(c2nc(OCC3CCCN3C)nc3c(F)c(-c4nc(N)cc(C)c4C(F)(F)F)c(Cl)cc23)C(C)C1
Result: 4.35

Problem: Also CC1(C)CCC(Nc2ncc(C(F)(F)F)c(-c3c[nH]c4c(P(C)(C)=O)c(C#N)ccc34)n2)CN1 (stereo unspecified) + C=CC(=O)N1CCN(c2nc(OCC3CCCN3C)nc3c(F)c(-c4nc(N)cc(C)c4C(F)(F)F)c(Cl)cc23)C(C)C1 ?
Result: 98

Recorded values, source PubChem BioAssay AID2060894.
